- experimental-target: PKR R510Q (Homo sapiens, UniProt P30613, R510Q)
- Sequence (P30613 whole entry R510Q): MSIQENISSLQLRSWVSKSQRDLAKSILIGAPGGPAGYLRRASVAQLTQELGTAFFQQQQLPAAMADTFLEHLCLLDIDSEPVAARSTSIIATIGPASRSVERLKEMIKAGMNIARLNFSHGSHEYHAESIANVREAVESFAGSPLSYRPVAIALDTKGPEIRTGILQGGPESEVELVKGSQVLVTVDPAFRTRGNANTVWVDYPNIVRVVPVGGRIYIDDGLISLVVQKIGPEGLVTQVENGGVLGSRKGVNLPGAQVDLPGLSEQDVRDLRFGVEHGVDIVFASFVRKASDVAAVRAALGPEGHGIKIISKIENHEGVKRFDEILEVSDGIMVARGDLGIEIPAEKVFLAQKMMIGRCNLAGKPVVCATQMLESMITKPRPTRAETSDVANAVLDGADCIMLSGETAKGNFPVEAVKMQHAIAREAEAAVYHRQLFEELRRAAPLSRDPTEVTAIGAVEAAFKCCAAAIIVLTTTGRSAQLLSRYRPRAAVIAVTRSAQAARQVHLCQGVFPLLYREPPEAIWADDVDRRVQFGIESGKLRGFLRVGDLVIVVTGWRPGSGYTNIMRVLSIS
- method-description: PKR Mutant Assay, AC50 against PKR R510Q
- Format: biochemical
- assay-setup: mutant PKR R510Q enzyme
reported-endpoint: AC50

structure_smiles=O=C(c1ccc(NS(=O)(=O)c2cccc(Cl)c2Cl)cc1)N1CCC(O)(Cc2ccccc2)CC1 reported_measurement="0.101 to 1 µM"
structure_smiles=Cn1cc(CC2(O)CCN(C(=O)c3ccc(NS(=O)(=O)c4cccc5scnc45)cc3)CC2)cn1 reported_measurement="0.101 to 1 µM"
structure_smiles=CCOC(=O)C1(Cc2ccccc2)CCN(C(=O)c2ccc(NS(=O)(=O)c3cccc4cccnc34)cc2)CC1 reported_measurement="1.01 to 10 µM"
structure_smiles=O=C(c1ccc(NS(=O)(=O)c2cccc3nccnc23)c(F)c1)N1CCC(O)(c2cccc(F)c2F)CC1 reported_measurement="0.101 to 1 µM"

* * *

As shown below, each of these compounds has a reported AC50 value.
- experimental-target: PKR R532W (Homo sapiens, UniProt P30613, R532W)
- Sequence (P30613 whole entry R532W): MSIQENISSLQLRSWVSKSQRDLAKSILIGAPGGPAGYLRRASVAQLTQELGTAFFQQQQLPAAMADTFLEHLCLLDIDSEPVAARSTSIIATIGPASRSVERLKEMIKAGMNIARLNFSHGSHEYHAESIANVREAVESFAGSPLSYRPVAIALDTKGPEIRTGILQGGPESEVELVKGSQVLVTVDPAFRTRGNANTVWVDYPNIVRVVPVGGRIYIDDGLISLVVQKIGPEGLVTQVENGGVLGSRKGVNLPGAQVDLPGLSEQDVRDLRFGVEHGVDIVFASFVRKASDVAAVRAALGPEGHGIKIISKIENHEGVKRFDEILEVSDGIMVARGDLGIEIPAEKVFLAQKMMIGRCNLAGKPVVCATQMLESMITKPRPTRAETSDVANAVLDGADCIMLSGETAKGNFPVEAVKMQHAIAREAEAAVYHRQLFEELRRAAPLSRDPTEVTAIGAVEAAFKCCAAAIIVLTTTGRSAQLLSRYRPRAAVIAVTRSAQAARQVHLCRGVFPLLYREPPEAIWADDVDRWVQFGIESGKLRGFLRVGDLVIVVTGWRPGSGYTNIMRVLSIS
- method-description: PKR Mutant Assay, AC50 against PKR R532W
- Type: biochemical
- assay-setup: mutant PKR R532W enzyme
reported-endpoint: AC50

compound="O=C(c1ccc(NS(=O)(=O)c2cccc3cccnc23)nc1)N1CCC(O)(c2ccccc2)CC1 [Compound 306]" reported_endpoint=AC50 reported_measurement="1.01 to 10 µM"
compound="CC(C)CC1(O)CCN(C(=O)c2ccc(NS(=O)(=O)c3cccc4csnc34)cc2)CC1 [Compound 257]" reported_endpoint=AC50 reported_measurement="0.101 to 1 µM"
compound="Nc1c(F)ccc(S(=O)(=O)Nc2ccc(C(=O)N3CCC(O)(c4ccccc4Cl)CC3)cc2)c1N [Compound 256]" reported_endpoint=AC50 reported_measurement="0.101 to 1 µM"
compound="Cn1nccc1CC1(O)CCN(C(=O)c2ccc(NS(=O)(=O)c3cccc4scnc34)cc2)CC1 [Compound 433]" reported_endpoint=AC50 reported_measurement="< 0.1 µM"
compound="O=C(c1ccc(NS(=O)(=O)c2cccc3cccnc23)c(F)c1)N1CCC(O)(Cc2ccccc2)CC1 [Compound 163]" reported_endpoint=AC50 reported_measurement="< 0.1 µM"
compound="O=C(c1ccc(NS(=O)(=O)c2ccc(F)c3cccnc23)c(F)c1)N1CCC(O)(c2cccc(F)c2F)CC1 [Compound 277]" reported_endpoint=AC50 reported_measurement="0.101 to 1 µM"
compound="O=C(c1ccc(NS(=O)(=O)c2cccc3cccnc23)cc1)N1CCC(O)(c2cccnc2C(F)(F)F)CC1 [Compound 159]" reported_endpoint=AC50 reported_measurement="< 0.1 µM"

* * *

- experimental-target: PKR WT (Homo sapiens)
- method-description: PKR WT cell based AC50 assay
- assay-setup: wild type PKR
As shown below, each of these compounds has a reported AC50 value.
reported-endpoint: AC50

structure_smiles=O=C(c1ccc(NS(=O)(=O)c2cccc3nccnc23)cc1)N1CCC(O)(CCC(F)=C(F)F)CC1 reported_endpoint=AC50 reported_measurement="< 100 nM"
structure_smiles=O=C(c1ccc(NS(=O)(=O)c2cccc3cc(F)cnc23)cc1)N1CCC(O)(c2ccccc2)CC1 reported_endpoint=AC50 reported_measurement="< 100 nM"
structure_smiles=CC(F)(F)CCC1(O)CCN(C(=O)c2ccc(NS(=O)(=O)c3cccc4scnc34)cc2)CC1 reported_endpoint=AC50 reported_measurement="101 to 1000 nM"
structure_smiles=O=C(c1ccc(NS(=O)(=O)c2cccc3cc(F)cnc23)cc1)N1CCC(O)(Cc2ccccc2)CC1 reported_endpoint=AC50 reported_measurement="< 100 nM"
structure_smiles=O=C(c1ccc(NS(=O)(=O)c2cccc3ccccc23)cc1)N1CCC(O)(c2ccccc2Cl)CC1 reported_endpoint=AC50 reported_measurement="101 to 1000 nM"
structure_smiles=O=C(c1ccc(NS(=O)(=O)c2cccc3cccnc23)cc1)N1CCC(O)(Cc2ccccc2C(F)(F)F)CC1 reported_endpoint=AC50 reported_measurement="< 100 nM"
structure_smiles=O=C(c1ccc(NS(=O)(=O)c2cccc3ccc(F)nc23)cc1)N1CCC(O)(c2ccccc2Cl)CC1 reported_endpoint=AC50 reported_measurement="101 to 1000 nM"
structure_smiles=O=C(c1ccc(NS(=O)(=O)c2cccc3cccnc23)cc1)N1CCC(O)(c2cccc(C(F)(F)F)c2)CC1 reported_endpoint=AC50 reported_measurement="< 100 nM"
structure_smiles=CC(C)CC1(O)CCN(C(=O)c2ccc(NS(=O)(=O)c3cccc4nc(N)cnc34)cc2)CC1 reported_endpoint=AC50 reported_measurement="< 100 nM"
structure_smiles=O=C(c1ccc(NS(=O)(=O)c2cccc3c(O)ncnc23)cc1)N1CCC(O)(c2cccc(F)c2F)CC1 reported_endpoint=AC50 reported_measurement="< 100 nM"
structure_smiles=O=C(c1ccc(NS(=O)(=O)c2cccc3nccnc23)cc1)N1CCC(O)(CCCC(F)(F)F)CC1 reported_endpoint=AC50 reported_measurement="< 100 nM"
structure_smiles=O=C(c1ccc(NS(=O)(=O)c2cccc3scnc23)cc1)N1CCC(O)(c2cccc(F)c2F)CC1 reported_endpoint=AC50 reported_measurement="< 100 nM"
structure_smiles=COc1ncccc1C1(O)CCN(C(=O)c2ccc(NS(=O)(=O)c3cccc4cccnc34)cc2)CC1 reported_endpoint=AC50 reported_measurement="101 to 1000 nM"
structure_smiles=CCCC1(O)CCN(C(=O)c2ccc(NS(=O)(=O)c3cccc4cccnc34)cc2)CC1 reported_endpoint=AC50 reported_measurement="< 100 nM"
structure_smiles=CS(=O)(=O)c1ccccc1C1(O)CCN(C(=O)c2ccc(NS(=O)(=O)c3cccc4cccnc34)cc2)CC1 reported_endpoint=AC50 reported_measurement="< 100 nM"

* * *

- experimental-target: PKR R510Q (Homo sapiens, UniProt P30613, R510Q)
- method-description: PKR Mutant Assay, AC50 against PKR R510Q
- Assay type: biochemical
- assay-setup: mutant PKR R510Q enzyme
reported-endpoint: AC50

molecule=O=C(c1ccc(NS(=O)(=O)c2cccc3cccnc23)cc1)N1CCC(O)(c2ccccc2OC(F)(F)F)CC1 reported_endpoint=AC50 reported_measurement="< 0.1 µM"
molecule=CC(F)(F)CC1(O)CCN(C(=O)c2ccc(NS(=O)(=O)c3cccc4scnc34)cc2)CC1 reported_endpoint=AC50 reported_measurement="0.101 to 1 µM"
molecule=Cc1ccccc1CC1(O)CCN(C(=O)c2ccc(NS(=O)(=O)c3cccc4cccnc34)cc2)CC1 reported_endpoint=AC50 reported_measurement="< 0.1 µM"
molecule="CC(C)CC1(O)CCN(C(=O)c2ccc(NS(=O)(=O)c3cccc4csnc34)cc2)CC1 [Compound 257]" reported_endpoint=AC50 reported_measurement="1.01 to 10 µM"
molecule=O=C(c1ccc(NS(=O)(=O)c2cccc3scnc23)cc1)N1CCC(O)(CC2CCC2)CC1 reported_endpoint=AC50 reported_measurement="0.101 to 1 µM"
molecule=O=C(c1ccc(NS(=O)(=O)c2csc3cccnc23)cc1)N1CCC(O)(c2ccccc2Cl)CC1 reported_endpoint=AC50 reported_measurement="1.01 to 10 µM"
molecule=COc1ccccc1C1(O)CCN(C(=O)c2ccc(NS(=O)(=O)c3cccc4cccnc34)cc2)CC1 reported_endpoint=AC50 reported_measurement="0.101 to 1 µM"
molecule=C=C(C)CC1(O)CCN(C(=O)c2ccc(NS(=O)(=O)c3cccc4scnc34)cc2)CC1 reported_endpoint=AC50 reported_measurement="0.101 to 1 µM"
molecule=O=C(c1ccc(NS(=O)(=O)c2cccc3scnc23)cc1)N1CCC(O)(CCC=C(F)F)CC1 reported_endpoint=AC50 reported_measurement="0.101 to 1 µM"
molecule=COc1cccc(CC2(O)CCN(C(=O)c3ccc(NS(=O)(=O)c4cccc5cccnc45)cc3)CC2)c1 reported_endpoint=AC50 reported_measurement="0.101 to 1 µM"
molecule=O=C(c1ccc(NS(=O)(=O)c2cccc3cccnc23)cc1)N1CCC(O)(CC2CC2)CC1 reported_endpoint=AC50 reported_measurement="< 0.1 µM"
molecule=Nc1nc2cc(S(=O)(=O)Nc3ccc(C(=O)N4CCC(O)(c5ccccc5Cl)CC4)cc3)c(F)cc2s1 reported_endpoint=AC50 reported_measurement="> 10 µM"
molecule=O=C(c1ccc(NS(=O)(=O)c2cccc3cccnc23)c(OC(F)(F)F)c1)N1CCC(O)(c2ccccc2Cl)CC1 reported_endpoint=AC50 reported_measurement="1.01 to 10 µM"
molecule=O=C(c1ccc(NS(=O)(=O)n2ccc3cccnc32)cc1)N1CCC(O)(c2ccccc2Cl)CC1 reported_endpoint=AC50 reported_measurement="> 10 µM"
molecule=O=C(c1ccc(NS(=O)(=O)c2cccc3cccnc23)cc1)N1CCC(O)(c2cc(F)ccc2Cl)CC1 reported_endpoint=AC50 reported_measurement="0.101 to 1 µM"

* * *

- experimental-target: PKR WT (Homo sapiens, UniProt P30613)
- Sequence (P30613 whole entry): as the sequence (P30613 whole entry R532W) above, with W532R counted along it
- method-description: PKR WT cell based AC50 assay
- assay-setup: wild type PKR
reported-endpoint: AC50

structure_smiles=CC(C)CC1(O)CCN(C(=O)c2ccc(NS(=O)(=O)c3cccc4nccnc34)cc2)CC1 experimental_target="PKR WT (Homo sapiens, UniProt P30613)" reported_endpoint=AC50 reported_measurement="< 100 nM"
structure_smiles=O=C(c1ccc(NS(=O)(=O)c2cccc3scnc23)cc1)N1CCC(O)(/C=C/CC(F)(F)F)CC1 experimental_target="PKR WT (Homo sapiens, UniProt P30613)" reported_endpoint=AC50 reported_measurement="101 to 1000 nM"
structure_smiles=O=C(c1ccc(NS(=O)(=O)c2cccc3cccnc23)cc1)N1CCC(O)(c2cccc(F)c2Cl)CC1 experimental_target="PKR WT (Homo sapiens, UniProt P30613)" reported_endpoint=AC50 reported_measurement="< 100 nM"
structure_smiles=O=C(c1ccc(NS(=O)(=O)c2cccc3nccnc23)cc1)N1CCC(O)(Cc2ccccc2C(F)(F)F)CC1 experimental_target="PKR WT (Homo sapiens, UniProt P30613)" reported_endpoint=AC50 reported_measurement="< 100 nM"
structure_smiles=Nc1nc2c(S(=O)(=O)Nc3ccc(C(=O)N4CCC(O)(c5cccc(F)c5F)CC4)cc3)cccc2s1 experimental_target="PKR WT (Homo sapiens, UniProt P30613)" reported_endpoint=AC50 reported_measurement="< 100 nM"
structure_smiles=CC(C)CC1(O)CCN(C(=O)c2ccc(NS(=O)(=O)c3cccc4ocnc34)cc2)CC1 experimental_target="PKR WT (Homo sapiens, UniProt P30613)" reported_endpoint=AC50 reported_measurement="101 to 1000 nM"
structure_smiles=CCc1ccccc1C1(O)CCN(C(=O)c2ccc(NS(=O)(=O)c3cccc4cccnc34)cc2)CC1 experimental_target="PKR WT (Homo sapiens, UniProt P30613)" reported_endpoint=AC50 reported_measurement="< 100 nM"

// data source = patent US9108921B2
